TARGET OR SYSTEM: Bovine Carbonic Anhydrase-II (bovine erythrocyte CA-II) (Bos taurus)
Construct: pure bovine erythrocyte CA-II; from tissue; host or cells: bovine erythrocytes
Sequence (P00921 whole entry): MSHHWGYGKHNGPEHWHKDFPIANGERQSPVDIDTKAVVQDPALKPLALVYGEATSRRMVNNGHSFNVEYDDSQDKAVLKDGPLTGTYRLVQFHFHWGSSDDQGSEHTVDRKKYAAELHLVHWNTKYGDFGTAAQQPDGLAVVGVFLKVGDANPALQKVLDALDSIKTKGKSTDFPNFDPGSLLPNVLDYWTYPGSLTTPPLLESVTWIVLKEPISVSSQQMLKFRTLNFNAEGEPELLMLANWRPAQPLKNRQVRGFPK
TEST NAME: Bovine carbonic anhydrase-II inhibition, 4-nitrophenyl acetate spectrophotometric assay
Format: biochemical
APPLIED CONDITIONS: 4-nitrophenyl acetate 0.7 mM, pH 7.4, 15 min preincubation; read-out: IC50 ± S.E.M. BCA-II
pIC50: −log10 of the molar value.
REPORTED PROPERTY: pIC50

MOLECULE	TARGET OR SYSTEM	REPORTED PROPERTY	RECORDED MEASUREMENT
NS(=O)(=O)c1ccc(NC(=S)NC(=O)c2cccc([N+](=O)[O-])c2)cc1	Bovine Carbonic Anhydrase-II (bovine erythrocyte CA-II) (Bos taurus)	pIC50	7.10
COc1cccc(C(=O)NC(=S)Nc2ccc(S(N)(=O)=O)cc2)c1	Bovine Carbonic Anhydrase-II (bovine erythrocyte CA-II) (Bos taurus)	pIC50	7.05
Cc1ccccc1C(=O)NC(=S)Nc1ccc(S(N)(=O)=O)cc1	Bovine Carbonic Anhydrase-II (bovine erythrocyte CA-II) (Bos taurus)	pIC50	7.10
CCC(C(=O)NC(=S)Nc1ccc(S(N)(=O)=O)cc1)c1ccccc1 (stereo not drawn)	Bovine Carbonic Anhydrase-II (bovine erythrocyte CA-II) (Bos taurus)	pIC50	6.70
NS(=O)(=O)c1ccc(NC(=S)NC(=O)Cc2ccccc2)cc1	Bovine Carbonic Anhydrase-II (bovine erythrocyte CA-II) (Bos taurus)	pIC50	7.15
NS(=O)(=O)c1ccc(NC(=S)NC(=O)C2CCCO2)cc1 (stereo not drawn)	Bovine Carbonic Anhydrase-II (bovine erythrocyte CA-II) (Bos taurus)	pIC50	6.92
Cc1ccc(C(=O)NC(=S)Nc2ccc(S(N)(=O)=O)cc2)cc1	Bovine Carbonic Anhydrase-II (bovine erythrocyte CA-II) (Bos taurus)	pIC50	7.10
NS(=O)(=O)c1ccc(NC(=S)NC(=O)c2cccc(Cl)c2)cc1	Bovine Carbonic Anhydrase-II (bovine erythrocyte CA-II) (Bos taurus)	pIC50	6.85
NS(=O)(=O)c1ccc(NC(=S)NC(=O)c2ccc([N+](=O)[O-])cc2Cl)cc1	Bovine Carbonic Anhydrase-II (bovine erythrocyte CA-II) (Bos taurus)	pIC50	7.22
